# target_of_assay: UniProt:P30874
# Sequence (P30874 whole entry): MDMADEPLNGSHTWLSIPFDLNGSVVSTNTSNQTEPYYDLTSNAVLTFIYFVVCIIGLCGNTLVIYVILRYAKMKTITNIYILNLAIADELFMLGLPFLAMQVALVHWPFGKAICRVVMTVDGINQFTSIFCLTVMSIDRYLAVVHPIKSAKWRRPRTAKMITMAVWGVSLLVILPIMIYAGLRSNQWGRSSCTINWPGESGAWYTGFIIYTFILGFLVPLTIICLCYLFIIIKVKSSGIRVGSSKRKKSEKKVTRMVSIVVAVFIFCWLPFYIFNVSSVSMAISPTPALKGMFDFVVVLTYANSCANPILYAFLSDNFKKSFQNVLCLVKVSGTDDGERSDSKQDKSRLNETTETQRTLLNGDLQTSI
measured_parameter: IC50 (nM)
I only need the number, in nM, no unit after it.

Ask: Could you tell me which IC50 is on file for C[C@H](c1ccc2ccccc2c1)[C@@H]1NC(=O)[C@H](Cc2ccc(N)cc2)NC(=O)[C@@H](Cc2ccccc2)NC(=O)[C@H](N)CSSC[C@@H](C(=O)O)NC(=O)[C@H](Cc2ccccc2)NC(=O)[C@@H]([C@@H](C)O)NC(=O)[C@H](CCCCN)NC1=O ?
Reply: 102

====

pIC50: −log10 of the molar value.
// endpoint pIC50 / system Somatostatin receptor type 5 (Homo sapiens)
measured_parameter: pIC50

1) C[C@H](c1ccc2ccccc2c1)[C@@H]1NC(=O)[C@H](Cc2ccc(N)cc2)NC(=O)[C@@H](Cc2ccccc2)NC(=O)[C@H](N)CSSC[C@@H](C(=O)O)NC(=O)[C@H](Cc2ccccc2)NC(=O)[C@@H]([C@@H](C)O)NC(=O)[C@H](CCCCN)NC1=O ... 7.00
2) C[C@@H](O)[C@@H]1NC(=O)[C@H](CCCCN)NC(=O)[C@@H]([C@@H](C)c2ccc3ccccc3c2)NC(=O)[C@H](Cc2ccc(N)cc2)NC(=O)[C@H](Cc2ccccc2)NC(=O)[C@H](NC(=O)[C@@H](N)Cc2ccc(O)cc2)CSSC[C@@H](C(=O)O)NC(=O)[C@H](Cc2ccccc2)NC1=O ... 6.90
3) C[C@@H](O)[C@@H]1NC(=O)[C@H](CCCCN)NC(=O)[C@H]([C@@H](C)c2ccc3ccccc3c2)NC(=O)[C@H](Cc2ccc(O)cc2)NC(=O)[C@H](Cc2ccccc2)NC(=O)[C@@H](N)CSSC[C@@H](C(=O)O)NC(=O)[C@H](Cc2ccccc2)NC1=O ... 6.83

a. C[C@H](c1ccc2ccccc2c1)[C@@H]1NC(=O)[C@H](Cc2ccc(O)cc2)NC(=O)[C@H](Cc2ccccc2)NC(=O)[C@@H](N)CSSC[C@@H](C(=O)O)NC(=O)[C@H](Cc2ccccc2)NC(=O)[C@H]([C@@H](C)O)NC(=O)[C@H](CCCCN)NC1=O
b. C[C@H](c1ccc2ccccc2c1)[C@@H]1NC(=O)[C@H](Cc2ccccc2)NC(=O)[C@@H](Cc2ccccc2)NC(=O)[C@H](N)CSSC[C@@H](C(=O)O)NC(=O)[C@H](Cc2ccc(O)cc2)NC(=O)[C@@H]([C@@H](C)O)NC(=O)[C@H](CCCCN)NC1=O
Ask: Input pair: a , b . Output: entry with lower pIC50. // caller expects the label of the chosen entry
Reply: b
(b: 7.33, a: 7.76)

Where do the numbers come from? From ChEMBL document CHEMBL1145934.
